Measurement Type: melting point

{"Molecule": "COc1cc(Nc2cc(C)nc3nc(NCc4ccccc4C)nn23)cc(OC)c1OC [Compound 7r]", "melting point": "182 to 184 °C"}

# get_value(readout='melting point', item= Cc1cc(Nc2ccc(F)c(Cl)c2)n2nc(NCc3ccc(Cl)cc3)nc2n1 [Compound 8a] ) 186 to 188 °C

Further, for COc1cc(Nc2cc(C)nc3nc(NCc4cccc(C)c4)nn23)cc(OC)c1OC [Compound 7q] ? 162 to 164 °C

Further, for COc1cc(Nc2cc(C)nc3nc(-c4ccc(Cl)cc4)nn23)cc(OC)c1OC [Compound 7b] ? 260 °C

====

Test system: Jurkat
Assay: Antiproliferative assay (resazurin, 72 h)
Assay type: cell-based, human
Measurement Type: IC50

# get_value(readout='IC50', item= COc1cc(Nc2cc(C)nc3nc(NCCCc4ccccc4)nn23)cc(OC)c1OC [Compound 7ad] ) > 2 µM

====

Tested on: A549
Assay: Antiproliferative assay (resazurin, 72 h)
Type: cell-based, human
Conditions: Homo sapiens, A549, Table 1, mean ± SE
Method: Colon adenocarcinoma (HT-29) and T-cell leukemia (Jurkat) cells were grown in RPMI-1640 medium (Gibco, Milano, Italy). […] The cells were seeded in 96-well plates at the appropriate density for each cell line. […] The fluorescence of the wells in each plate was monitored using a Spark 10 M spectrophotometer (Tecan Group Ltd., Mannedorf, Switzerland) with a 535 nm excitation wavelength and a 600 nm emission wavelength.
pIC50: −log10 of the molar value.
Measurement Type: pIC50

{"Compound": "COc1cc(Nc2cc(C)nc3nc(NCc4cccc(C)c4)nn23)cc(OC)c1OC [Compound 7q]", "Tgt": "A549", "pIC50": 5.41}
{"Compound": "COc1cccc(CNc2nc3nc(C)cc(Nc4cc(OC)c(OC)c(OC)c4)n3n2)c1 [Compound 7t]", "Tgt": "A549", "pIC50": 5.78}
{"Compound": "COc1cc(Nc2cc(C)nc3nc(NCc4ccc(F)cc4)nn23)cc(OC)c1OC [Compound 7l]", "Tgt": "A549", "pIC50": 5.23}
{"Compound": "COc1cc(Nc2cc(C)nc3nc(NCc4cccnc4)nn23)cc(OC)c1OC [Compound 7k]", "Tgt": "A549", "pIC50": 5.28}
{"Compound": "COc1ccc(CNc2nc3nc(C)cc(Nc4cc(OC)c(OC)c(OC)c4)n3n2)cc1 [Compound 7s]", "Tgt": "A549", "pIC50": 6.09}
{"Compound": "COc1cc(Nc2cc(C)nc3nc(Nc4ccc(Cl)cc4)nn23)cc(OC)c1OC [Compound 7f]", "Tgt": "A549", "pIC50": 6.54}

1 = COc1cc(Nc2cc(C)nc3nc(NCc4cccc(Cl)c4)nn23)cc(OC)c1OC [Compound 7o]
2 = COc1cc(Nc2cc(C)nc3nc(NCc4ccc(C)cc4)nn23)cc(OC)c1OC [Compound 7p]
3 = COc1cc(Nc2cc(C)nc3nc(NCc4ccc(Cl)cc4)nn23)cc(OC)c1OC [Compound 7n]
4 = COc1ccc(Nc2nc3nc(C)cc(Nc4cc(OC)c(OC)c(OC)c4)n3n2)cc1 [Compound 7h]
Ascending sort, pIC50. Please list the labels according to the requested order. 4, 1, 2, 3
(4: 5.42, 1: 6.03, 2: 6.38, 3: 6.96)

====

Test system: A549
Assay: Antiproliferative assay (resazurin, 72 h)
Type: cell-based, human
Settings: Homo sapiens, A549, Table 1, mean ± SE
pIC50: −log10 of the molar value.
Measurement Type: pIC50

{"Molecule": "COc1cc(Nc2cc(C)nc3nc(NCc4cccc(F)c4)nn23)cc(OC)c1OC [Compound 7m]", "pIC50": 5.66}
{"Molecule": "COc1cc(Nc2cc(C)nc3nc(Nc4ccccc4)nn23)cc(OC)c1OC [Compound 7d]", "pIC50": 5.64}

====

Tested on: Jurkat
Assay: Antiproliferative assay (resazurin, 72 h)
Format: cell-based, human
Conditions: Table 2; mean ± SE; 72 h
Measurement Type: IC50 (nM)

Some entries whose results are on file:
{"Structure Notation": "Cc1cc(Nc2ccc(F)cc2)n2nc(NCCCc3ccccc3)nc2n1", "Tgt": "Jurkat", "Measurement Type": "IC50", "Unit Info": "nM", "Recorded Number": 150}
{"Structure Notation": "Cc1cc(Nc2ccc(Br)cc2)n2nc(NCCCc3ccccc3)nc2n1", "Tgt": "Jurkat", "Measurement Type": "IC50", "Unit Info": "nM", "Recorded Number": 150}
{"Structure Notation": "Cc1cc(Nc2cccc(Cl)c2)n2nc(NCCCc3ccccc3)nc2n1", "Tgt": "Jurkat", "Measurement Type": "IC50", "Unit Info": "nM", "Recorded Number": 140}

I = Cc1cc(Nc2ccc(Cl)cc2)n2nc(NCCCc3ccccc3)nc2n1
II = C#Cc1cccc(Nc2cc(C)nc3nc(NCCCc4ccccc4)nn23)c1
Between the entries labelled I and II , which has a larger IC50 value on record? Answer by quoting the chosen item's label. II
(II: 160 nM, I: 83 nM)

====

Test system: MDA-MB-231
Experiment: Antiproliferative assay (resazurin, 72 h)
Assay type: cell-based, human
Conditions: Homo sapiens, MDA-MB-231; Table 2; mean ± SE; 72 h
pIC50: −log10 of the molar value.
Measurement Type: pIC50

{"Molecule": "Cc1cc(Nc2cccc(Br)c2)n2nc(NCc3ccc4c(c3)OCO4)nc2n1 [Compound 8m]", "pIC50": 5.40}
{"Molecule": "Cc1cc(Nc2ccc(Br)cc2)n2nc(NCc3ccc4c(c3)OCO4)nc2n1 [Compound 8l]", "pIC50": 5.90}

a = Cc1cc(Nc2ccc(F)cc2)n2nc(NCc3ccc4c(c3)OCO4)nc2n1 [Compound 8g]
b = Cc1cc(Nc2cccc(C(F)(F)F)c2)n2nc(NCc3ccc4c(c3)OCO4)nc2n1 [Compound 8o]
From the items above, decide which of a and b has the lower pIC50 reading. Answer by quoting the chosen item's label. b

P = Cc1cc(Nc2ccc(Cl)cc2)n2nc(NCc3ccc4c(c3)OCO4)nc2n1 [Compound 8i]
Q = Cc1cc(Nc2cccc(F)c2)n2nc(NCc3ccc4c(c3)OCO4)nc2n1 [Compound 8h]
Between the entries labelled P and Q , which has a larger pIC50 value on record? Answer by quoting the chosen item's label. P
(P: 6.03, Q: 5.03)

====

Measured melting point, listed per entry for reference.

Some entries whose results are on file:
{"Structure Notation": "COc1cc(Nc2cc(C)nc3nc(NCCc4ccc(Cl)cc4)nn23)cc(OC)c1OC", "Measurement Type": "melting point", "Result": "196 to 198 °C"}
{"Structure Notation": "COc1ccccc1CNc1nc2nc(C)cc(Nc3cc(OC)c(OC)c(OC)c3)n2n1", "Measurement Type": "melting point", "Result": "208 to 210 °C"}
{"Structure Notation": "COc1cc(Nc2cc(C)nc3nc(NCc4cccc(F)c4)nn23)cc(OC)c1OC", "Measurement Type": "melting point", "Result": "176 to 178 °C"}
{"Structure Notation": "COc1cc(Nc2cc(C)nc3nc(NCc4ccncc4)nn23)cc(OC)c1OC", "Measurement Type": "melting point", "Result": "184 to 186 °C"}
{"Structure Notation": "Cc1cc(Nc2cccc(F)c2)n2nc(NCc3ccc4c(c3)OCO4)nc2n1", "Measurement Type": "melting point", "Result": "174 to 176 °C"}
{"Structure Notation": "C#Cc1cccc(Nc2cc(C)nc3nc(NCc4ccc(Cl)cc4)nn23)c1", "Measurement Type": "melting point", "Result": "190 to 192 °C"}

# get_value(readout='melting point', item= COc1cc(Nc2cc(C)nc3nc(NCc4ccc5c(c4)OCO5)nn23)cc(OC)c1OC ) 190 to 192 °C

Further, for COc1cc(Nc2cc(C)nc3nc(NCCc4ccccc4)nn23)cc(OC)c1OC ? 201 to 203 °C

Further, for COc1cc(Nc2cc(C)nc3nc(-c4ccc(C)cc4)nn23)cc(OC)c1OC ? 248 °C

====

Test system: Jurkat
Test: Antiproliferative assay (resazurin, 72 h)
Format: cell-based, human
Details: Homo sapiens, Jurkat; Table 1; mean ± SE; 72 h
Measurement Type: IC50 (nM)

Some entries whose results are on file:
{"Structure Notation": "COc1cc(Nc2cc(C)nc3nc(-c4ccc(F)cc4)nn23)cc(OC)c1OC", "Recorded Number": 3570}
{"Structure Notation": "COc1cc(Nc2cc(C)nc3nc(NCc4ccccc4C)nn23)cc(OC)c1OC", "Recorded Number": 4440}
{"Structure Notation": "COc1cc(Nc2cc(C)nc3nc(NCc4ccc(F)cc4)nn23)cc(OC)c1OC", "Recorded Number": 4680}
{"Structure Notation": "COc1cc(Nc2cc(C)nc3nc(NCc4ccc(Cl)cc4)nn23)cc(OC)c1OC", "Recorded Number": 320}
{"Structure Notation": "COc1cc(Nc2cc(C)nc3nc(-c4ccc(C)cc4)nn23)cc(OC)c1OC", "Recorded Number": 4230}

I = COc1ccc(Nc2nc3nc(C)cc(Nc4cc(OC)c(OC)c(OC)c4)n3n2)cc1
II = COc1cc(Nc2cc(C)nc3nc(Nc4ccccc4)nn23)cc(OC)c1OC
From the items above, decide which of I and II has the lower IC50 reading. Answer by quoting the chosen item's label. II

a = COc1cc(Nc2cc(C)nc3nc(NCc4ccc5c(c4)OCO5)nn23)cc(OC)c1OC
b = COc1ccc(CNc2nc3nc(C)cc(Nc4cc(OC)c(OC)c(OC)c4)n3n2)cc1OC
From the items above, decide which of a and b has the lower IC50 reading. Answer by quoting the chosen item's label. a
(a: 780 nM, b: 1220 nM)
